Data provenance is patent US20220017516A1.

target: LOX (Sus scrofa, UniProt P45845); construct: LOX was extracted from pig skin by previously described methods; from tissue; host or cells: pig skin; experiment: LOX isoform activity assay (ROS Glo), LOX; format: biochemical, pig; details: 1 h incubation with enzyme
Sequence (P45845 whole entry, canonical isoform): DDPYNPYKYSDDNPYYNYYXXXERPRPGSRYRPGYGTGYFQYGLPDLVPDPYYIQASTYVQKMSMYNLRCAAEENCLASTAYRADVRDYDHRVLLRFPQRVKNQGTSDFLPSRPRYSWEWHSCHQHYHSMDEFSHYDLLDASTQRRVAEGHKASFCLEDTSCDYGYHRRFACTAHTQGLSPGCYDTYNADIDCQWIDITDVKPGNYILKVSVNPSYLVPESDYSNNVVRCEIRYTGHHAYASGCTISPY
IC50 listing for selected molecules.
Assay Readout: IC50 (µM)

molecule="CCNC(=O)N1C[C@@H]2CN(c3ccc(OCCCS(=O)(=O)CCN)cc3)[C@H](C1)C(C)(C)C2 [Example 36]" assay_readout=IC50 comparison_operator== recorded_value=4.5
molecule="NCCS(=O)(=O)CC(=O)N1CCN(c2ccccc2)CC1 [Example 13]" assay_readout=IC50 comparison_operator== recorded_value=25
molecule="CCOc1ccc(N2C[C@H]3CN(C(=O)C(C)S(=O)(=O)CCN)C[C@@H]2C(C)(C)C3)cc1 (mixture of isomers) [Example 39]" assay_readout=IC50 comparison_operator== recorded_value=10
molecule="CCOc1ccc(N2C[C@@H]3C[C@H]2CN3C(=O)C2(S(=O)(=O)CCN)CC2)cc1 [Example 42]" assay_readout=IC50 comparison_operator=> recorded_value=100

###

The reader will find reported IC50 values listed item by item below.
Target: LOXL2 (Homo sapiens)
Construct: purchased R&D Systems/Bio-techne
Sequence (Q9Y4K0 26-774): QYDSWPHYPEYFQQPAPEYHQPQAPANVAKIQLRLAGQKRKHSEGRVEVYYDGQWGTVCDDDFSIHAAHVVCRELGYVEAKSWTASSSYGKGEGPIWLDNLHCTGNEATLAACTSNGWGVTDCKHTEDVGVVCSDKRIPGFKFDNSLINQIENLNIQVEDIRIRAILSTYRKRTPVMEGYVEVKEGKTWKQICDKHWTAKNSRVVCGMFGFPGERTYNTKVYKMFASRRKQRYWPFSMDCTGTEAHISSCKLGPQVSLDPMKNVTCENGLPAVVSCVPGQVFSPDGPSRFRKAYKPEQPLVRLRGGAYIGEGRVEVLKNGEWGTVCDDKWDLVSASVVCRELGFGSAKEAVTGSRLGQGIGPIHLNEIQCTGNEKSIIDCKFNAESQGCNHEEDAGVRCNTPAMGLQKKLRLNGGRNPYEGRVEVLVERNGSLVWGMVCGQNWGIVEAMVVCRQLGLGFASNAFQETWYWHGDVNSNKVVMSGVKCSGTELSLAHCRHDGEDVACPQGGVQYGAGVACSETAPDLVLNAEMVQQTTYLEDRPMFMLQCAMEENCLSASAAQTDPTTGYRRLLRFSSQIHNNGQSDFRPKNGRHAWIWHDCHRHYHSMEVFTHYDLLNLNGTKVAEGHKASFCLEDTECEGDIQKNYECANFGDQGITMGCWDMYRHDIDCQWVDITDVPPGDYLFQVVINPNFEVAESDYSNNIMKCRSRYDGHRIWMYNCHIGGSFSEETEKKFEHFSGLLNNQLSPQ
Experiment: LOX isoform activity assay (ROS Glo), LOXL2
Format: biochemical
Conditions: 20 hr incubation with enzyme; read-out: LOXL2 IC50 c) 20 hr
Assay Readout: IC50

compound="CCOc1ccc(N2C[C@H]3CN(C(=O)c4cccc(S(=O)(=O)CCN)c4)C[C@@H]2C(C)(C)C3)cc1 [Example 32]" target_or_system="LOXL2 (Homo sapiens)" recorded_value="3000 nM"
compound="CC1(C)C[C@@H]2CN(C(=O)N3CCS(=O)(=O)CC3)C[C@H]1N(c1ccc(OCCCS(=O)(=O)CCN)cc1)C2 [Example 35]" target_or_system="LOXL2 (Homo sapiens)" recorded_value="6700 nM"
compound="CCOc1ccc(N2C[C@@H]3C[C@H]2CN3C(=O)C(F)S(=O)(=O)CCN)cc1 (mixture of isomers) [Example 16]" target_or_system="LOXL2 (Homo sapiens)" recorded_value="140 nM"
compound="CCOc1ccc(N2C[C@H]3CN(CCCS(=O)(=O)CCN)C[C@@H]2C(C)(C)C3)cc1 [Example 6]" target_or_system="LOXL2 (Homo sapiens)" recorded_value="2500 nM"
compound="CCOc1ccc(N2C[C@@H]3C[C@H]2CN3C(=O)CS(=O)(=O)CCN)cc1 [Example 8]" target_or_system="LOXL2 (Homo sapiens)" recorded_value="150 nM"
compound="CC1(C)C[C@@H]2CN(C(=O)CS(=O)(=O)CCN)C[C@H]1N(c1ccc(N3CCS(=O)(=O)CC3)cc1)C2 [Example 10]" target_or_system="LOXL2 (Homo sapiens)" recorded_value="940 nM"
compound="CCOc1ccc(N2C[C@H]3CN(C(=O)C(F)S(=O)(=O)CCN)C[C@@H]2C(C)(C)C3)cc1 (some centres unmarked) [Example 15]" target_or_system="LOXL2 (Homo sapiens)" recorded_value="120 nM"
compound="CCNC(=O)N1C[C@@H]2CN(c3ccc(OCCCS(=O)(=O)CCN)cc3)[C@H](C1)C(C)(C)C2 [Example 36]" target_or_system="LOXL2 (Homo sapiens)" recorded_value="5100 nM"
compound="CCOc1ccc(N2C[C@H]3CN(c4ccc(S(=O)(=O)CCN)cc4)C[C@@H]2C(C)(C)C3)cc1 [Example 33]" target_or_system="LOXL2 (Homo sapiens)" recorded_value="16000 nM"
compound="CCOc1ccc(N2C[C@H]3CN(C(=O)CS(=O)(=O)CCN)C[C@@H]2C(C)(C)C3)cc1 [Example 7]" target_or_system="LOXL2 (Homo sapiens)" recorded_value="270 nM"
compound="CCOc1ccc(N2C[C@H]3CN(CCS(=O)(=O)CCN)C[C@@H]2C(C)(C)C3)cc1 [Example 1]" target_or_system="LOXL2 (Homo sapiens)" recorded_value="1600 nM"
compound="CCOc1ccc(N2C[C@@H]3CC[C@H]2CN(C(=O)CS(=O)(=O)CCN)C3)cc1 [Example 9]" target_or_system="LOXL2 (Homo sapiens)" recorded_value="340 nM"
compound="CCOc1ccc(N2C[C@@H]3C[C@H]2CN3CCS(=O)(=O)CCN)cc1 [Example 2]" target_or_system="LOXL2 (Homo sapiens)" recorded_value="400 nM"
compound="CC1(C)C[C@@H]2CN(CCS(=O)(=O)CCN)C[C@H]1N(c1ccc(N3CCS(=O)(=O)CC3)cc1)C2 [Example 5]" target_or_system="LOXL2 (Homo sapiens)" recorded_value="480 nM"
